Target: M1 muscarinic receptor (Homo sapiens)
Construct: expressed in transfected cells; host or cells: CHO cells (M1-CHO, under zeocin and G418 selection)
Assay: Functional mobilization of intracellular calcium (FLIPR, Fluo-3), M1-CHO cells
Type: cell-based
Conditions: compound nos. 1-454; 100% efficacy is the maximum response obtained with the Carbachol control; read-out: M1 Efficacy
ATTRIBUTE MEASURED: Emax

Completed entries (count: 8):
CCOC(=O)N1CCC(CN2CCC3(CCc4ccccc43)CC2)CC1 ... < 65%
CCCOC(=O)N1CCC(CN2CCC3(CC2)C[C@H](NC(C)=O)c2ccccc23)CC1 ... 65 to 85%
CCCOC(=O)N1CCC(N2CCC3(CC2)CN(C(C)=O)c2ccc(F)cc23)CC1 ... < 65%
CC(=O)N1CC2(CCN(CC3CC4CCC3CC4)CC2)c2cc(F)ccc21 (centres unmarked) ... < 65%
CS(=O)(=O)N[C@H]1CC2(CCN(C[C@H]3C[C@H]4C=C[C@H]3C4)CC2)c2ccccc21 ... 65 to 85%
COC(=O)N1C2CCC1CC(N1CCC3(CC1)COc1ccc(F)cc13)C2 (centres unmarked) ... 65 to 85%
COCCOC(=O)N1C2CCC1CC(N1CCC3(CCc4ccccc43)CC1)C2 (centres unmarked) ... 65 to 85%
CCOC(=O)N1C2CCC1CC(N1CCC3(CC1)COc1ccc(Cl)cc13)C2 (centres unmarked) ... < 65%

Please tell me: Emax of "CCOC(=O)N1CCC(N2CCC3(CC2)C[C@H](NC(C)=O)c2ccccc23)CC1" , system M1 muscarinic receptor (Homo sapiens)?
< 65%

Please tell me: Emax of "CCOC(=O)N1CCC(N2CCC3(CC2)CN(C(C)=O)c2ccc(-c4ccoc4)cc23)CC1" , system M1 muscarinic receptor (Homo sapiens)?
< 65%

Please tell me: Emax of CC(C)(C)COC(=O)N1C2CCC1CC(N1CCC3(CC1)COc1ccc(F)cc13)C2 (centres unmarked) , system M1 muscarinic receptor (Homo sapiens)?
65 to 85%

Please tell me: Emax of "CCOC(=O)N1CCC(N2CCC3(CC2)CN(C(=O)c2ccc4c(c2)OCO4)c2ccc(F)cc23)CC1" , system M1 muscarinic receptor (Homo sapiens)?
65 to 85%

Please tell me: Emax of Cc1ccc2c(c1)C1(CCN(CC3CC4CCC3C4)CC1)CN2C(=O)OC(C)(C)C (centres unmarked) , system M1 muscarinic receptor (Homo sapiens)?
65 to 85%

###

Known Emax of a selection of compounds
Target: M1 muscarinic receptor (Homo sapiens, UniProt P11229)
Construct: expressed in transfected cells; host or cells: CHO cells (M1-CHO, under zeocin and G418 selection)
Assay: Functional mobilization of intracellular calcium (FLIPR, Fluo-3), M1-CHO cells
Type: cell-based
Settings: compound nos. 1-454; 100% efficacy is the maximum response obtained with the Carbachol control; read-out: M1 Efficacy

Completed entries (count: 5):
COCCOC(=O)N1C2CCC1CC(N1CCC3(CC1)C(=O)Nc1ccccc13)C2 (centres unmarked) [compound 71] ... < 65%
CCCOC(=O)N1CC2(CCN(C3CCN(C(=O)OCC)CC3)CC2)c2cc(F)ccc21 [compound 114] ... 65 to 85%
CCOC(=O)N1CCC(N2CCC3(CC2)CN(C(=O)C2CCC2)c2ccc(F)cc23)CC1 [compound 254] ... 65 to 85%
COC(=O)N1CCC(CN2CCC3(CC2)C[C@H](NC(C)=O)c2ccccc23)CC1 [compound 182] ... 65 to 85%
C#CCCOC(=O)N1CCC(N2CCC3(CC2)CN(C(=O)N(C)C)c2ccc(F)cc23)CC1 [compound 127] ... 65 to 85%

Given the compound CC(=O)N1CC2(CCN(C3CCN(C(=O)OCCF)CC3)CC2)c2cc(F)ccc21 [compound 172] , what is its reported Emax?
> 85%

Given the compound CC(=O)N1CC2(CCN(C3CCOCC3)CC2)c2cc(F)ccc21 [compound 268] , what is its reported Emax?
< 65%

Given the compound CC(=O)N1CC2(CCN(C3CC4CCC(C3)N4C(=O)O[C@H]3CCOC3)CC2)c2cc(F)ccc21 (some centres unmarked) [compound 47] , what is its reported Emax?
65 to 85%

###

Target: M4 muscarinic receptor (Homo sapiens)
Construct: expressed in transfected cells; host or cells: CHO cells (M4-CHO, under puromycin, zeocin and blasticidin selection)
Sequence (P08173 whole entry): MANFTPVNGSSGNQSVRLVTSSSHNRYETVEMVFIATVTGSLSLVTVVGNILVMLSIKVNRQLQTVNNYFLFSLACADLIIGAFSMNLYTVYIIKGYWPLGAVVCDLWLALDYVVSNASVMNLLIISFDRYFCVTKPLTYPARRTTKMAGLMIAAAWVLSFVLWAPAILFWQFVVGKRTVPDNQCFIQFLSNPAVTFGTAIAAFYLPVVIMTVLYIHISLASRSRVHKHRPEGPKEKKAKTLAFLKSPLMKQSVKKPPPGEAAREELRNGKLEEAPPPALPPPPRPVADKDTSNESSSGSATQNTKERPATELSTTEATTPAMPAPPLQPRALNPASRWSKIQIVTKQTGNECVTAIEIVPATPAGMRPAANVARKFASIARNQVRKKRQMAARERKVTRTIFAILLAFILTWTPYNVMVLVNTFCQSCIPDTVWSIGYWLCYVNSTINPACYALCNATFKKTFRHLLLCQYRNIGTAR
Test: Functional mobilization of intracellular calcium (FLIPR, Fluo-3), M4-CHO cells
Format: cell-based
Settings: compound nos. 1-454; 100% efficacy is the maximum response obtained with the Carbachol control; read-out: M4 Efficacy
Known Emax of a selection of compounds

CC(C)OC(=O)N1CCC(N2CCC3(CC2)CN(C(=O)N(C)C)c2ccc(F)cc23)CC1 ... 55 to 70%
Cc1cc(C(=O)N2CC3(CCN(C4CC5CCC(C4)N5C(=O)OC(C)C)CC3)c3cc(F)ccc32)nn1C (centres unmarked) ... < 55%
CC(=O)N[C@H]1CC2(CCN(CC3CC4CCC3CC4)CC2)c2ccccc21 (some centres unmarked) ... > 70%

Given the compound "Clc1ccc2c(c1)C1(CCN(C3CCCCCC3)CC1)CN2" , what is its reported Emax?
< 55%

Given the compound "CC(=O)N[C@@H]1CC2(CCN([C@H]3C[C@@H]4CC[C@H]3C4)CC2)c2ccccc21" , what is its reported Emax?
55 to 70%

Given the compound COC(=O)N1CC2(CCN(C3CC4CCC(C3)N4C(=O)O[C@H]3CCOC3)CC2)c2cc(F)ccc21 (some centres unmarked) , what is its reported Emax?
< 55%

Given the compound CCCC1CCC(N2CCC3(CC2)CN(C(C)=O)c2ccc(F)cc23)CC1 (centres unmarked) , what is its reported Emax?
> 70%

Given the compound Fc1ccc2c(c1)C1(CCN(C3CCC4CCC3C4)CC1)CN2 (centres unmarked) , what is its reported Emax?
< 55%

###

Target: M1 muscarinic receptor (Homo sapiens, UniProt P11229)
Construct: expressed in transfected cells; host or cells: CHO cells (M1-CHO, under zeocin and G418 selection)
Sequence (P11229 1-460): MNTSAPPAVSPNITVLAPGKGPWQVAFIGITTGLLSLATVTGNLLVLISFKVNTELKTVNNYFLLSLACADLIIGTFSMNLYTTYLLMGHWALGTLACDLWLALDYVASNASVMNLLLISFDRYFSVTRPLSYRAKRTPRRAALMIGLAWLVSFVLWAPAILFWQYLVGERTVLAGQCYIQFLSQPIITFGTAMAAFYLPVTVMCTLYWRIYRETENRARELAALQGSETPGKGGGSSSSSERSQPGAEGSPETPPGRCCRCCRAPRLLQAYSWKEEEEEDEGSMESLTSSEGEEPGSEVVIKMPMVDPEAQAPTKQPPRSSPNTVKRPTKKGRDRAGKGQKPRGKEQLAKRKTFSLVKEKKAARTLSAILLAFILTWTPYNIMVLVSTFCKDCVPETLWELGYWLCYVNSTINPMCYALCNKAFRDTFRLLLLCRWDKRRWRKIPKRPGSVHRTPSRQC
Experiment: Functional mobilization of intracellular calcium (FLIPR, Fluo-3), M1-CHO cells
Type: cell-based
Conditions: compound nos. 1-454; 100% efficacy is the maximum response obtained with the Carbachol control; read-out: M1 Efficacy
Known Emax of a selection of compounds

Completed entries (count: 7):
CN(C)C(=O)N1CC2(CCN(C3CCN(c4ccccn4)CC3)CC2)c2cc(F)ccc21 ... 65 to 85%
Fc1ccc2c(c1)C1(CCN([C@H]3C[C@@H]4CC[C@@H]3C4)CC1)CO2 ... 65 to 85%
CC(=O)N1CC2(CCN(C3CCCC3)CC2)c2cc(F)ccc21 ... 65 to 85%
CCOC(=O)N1CCC(N2CCC3(CC2)CN(C(=O)N(C)C)c2ccc(F)cc23)CC1 ... 65 to 85%
CCOC(=O)N1CCC(N2CCC3(CC2)CN(C(=O)c2ccncc2)c2ccc(F)cc23)CC1 ... 65 to 85%
COC(=O)N1CC2(CCN(C3CC4CCC(C3)N4C(=O)OCC(C)C)CC2)c2cc(F)ccc21 (centres unmarked) ... < 65%
CC(=O)N[C@H]1CC2(CCN(C3CCCCC3)CC2)c2ccccc21 ... 65 to 85%

Please tell me: Emax of CCOC(=O)C1CCC(N2CCC3(CC2)CN(C(C)=O)c2ccc(F)cc23)CC1 (centres unmarked) , system M1 muscarinic receptor (Homo sapiens, UniProt P11229)?
< 65%

###

Known Emax of a selection of compounds
Target: M4 muscarinic receptor (Homo sapiens)
Construct: expressed in transfected cells; host or cells: CHO cells (M4-CHO, under puromycin, zeocin and blasticidin selection)
Test: Functional mobilization of intracellular calcium (FLIPR, Fluo-3), M4-CHO cells
Assay type: cell-based
Settings: compound nos. 1-454; 100% efficacy is the maximum response obtained with the Carbachol control; read-out: M4 Efficacy

CC(=O)N[C@H]1CC2(CCN(C3CCC(c4ccccc4)CC3)CC2)c2ccccc21 (stereo partly shown) ... > 70%
Cc1ccc2c(c1)C1(CCN(C3CC4CCC(C4)C3)CC1)CN2 (stereo not shown) ... < 55%
CCOC(=O)N1C2CCC1CC(N1CCC3(CC1)CN(C(=O)c1cc(C)nn1C(C)(C)C)c1ccc(F)cc13)C2 (stereo not shown) ... 55 to 70%

Turning now to a further compound:
Given the compound "Fc1ccc2c(c1)C1(CCN([C@@H]3C[C@@H]4CC[C@H]3C4)CC1)CO2" , what is its reported Emax?
55 to 70%

Cited source for all entries: patent US7858635B2
